B1: Pistol ribozyme (parent)
chain: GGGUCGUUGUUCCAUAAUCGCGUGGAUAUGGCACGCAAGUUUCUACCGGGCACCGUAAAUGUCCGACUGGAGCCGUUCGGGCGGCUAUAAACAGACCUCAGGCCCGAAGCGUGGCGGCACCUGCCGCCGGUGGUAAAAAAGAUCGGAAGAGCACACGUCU

Variants of: B1
method_notes: aptazyme ON/OFF ratio, guanine; higher = stronger switching; co-transcriptional cleavage with and without guanine
measure_name: aptazyme ON/OFF ratio

>>> numeric_result("U7G U8C G9U U11C")
2.88
>>> numeric_result("U7C U8C G9C U10C C12A C13G")
1.07
>>> numeric_result("U7C U8C U10G C13A")
1.13
>>> numeric_result("U8C G9A U10G C12U C13G")
1.2
>>> numeric_result("U7A U8G U10G U11C C12U C13G")
1.11
>>> numeric_result("U7G U8A U10C U11G C12U C13A")
1.2
>>> numeric_result("U7C U8G G9U U10C C12U")
1.4
>>> numeric_result("U8A G9C U10A C12U C13G")
1.04
>>> numeric_result("U8C G9U U10C U11G C12G C13A")
1.11
>>> numeric_result("U8G U11C C12U")
1.26
>>> numeric_result("U7G U8G U10C C12U C13U")
1.39
>>> numeric_result("U7A G9C U10A C13G")
1.08
>>> numeric_result("U7A U8C G9U U11C C12G")
1.27
>>> numeric_result("U7G U8A G9U U10G U11C C12G C13G")
1.03
>>> numeric_result("U8G G9A U10G U11G C12U C13U")
1.29
>>> numeric_result("U7A U8A G9A U10C")
1.52
>>> numeric_result("U8G G9C U10G U11A C12A C13G")
1.11
>>> numeric_result("U7G U8G G9U U10G U11G C13A")
1.06
>>> numeric_result("U7G U8C G9C U11C C12U")
1.78
>>> numeric_result("U7A U8C G9U U10A U11A C12U")
1.12
>>> numeric_result("U7A U8G G9C U10A U11A C12U")
1.44
>>> numeric_result("G9A U10C C13U")
1.23
>>> numeric_result("U7G U8C G9U U11G C12U C13U")
1.35
>>> numeric_result("U7C U8G G9A U10C U11C C12G C13U")
1.07
>>> numeric_result("U7C U8A G9U U10G C12A C13A")
1.19
>>> numeric_result("U7A U8A U11C C12U")
1.48
>>> numeric_result("U7C U8A G9A C12A")
1.32
>>> numeric_result("U7G U8C G9U U10C U11A C12A C13A")
1.52
>>> numeric_result("U7C U8G G9C U10C U11G C12U")
1.17
>>> numeric_result("U8A U10A U11C")
1
>>> numeric_result("U8A G9U U10A C12G")
1.31
>>> numeric_result("U8A G9U U10G C12A C13G")
1.12
>>> numeric_result("U7G U8A G9C C12G C13G")
1.04
>>> numeric_result("U10C C12U")
2.09
>>> numeric_result("U7C U10G C12G C13G")
1.13
>>> numeric_result("U7A")
3.28
>>> numeric_result("U7C U10C U11A C12U C13G")
1.32
>>> numeric_result("U7C U8C G9A U10A U11C C12U C13U")
1.13
>>> numeric_result("U7G U8G U10A U11C C13A")
1.27
>>> numeric_result("U7C U8C U10C C12G C13A")
1.24
>>> numeric_result("U7G U10C U11G C13A")
1.08
>>> numeric_result("U7A U8C U10G U11G C13G")
1.2
>>> numeric_result("U7C U8C U11A C12G")
1.14
>>> numeric_result("U7G U8A U10A U11G C12G C13A")
1.26
>>> numeric_result("U7G G9U U11G C12A C13U")
1.26
>>> numeric_result("U7A U8A G9C U10G U11A C12A C13A")
1.17
>>> numeric_result("U8A G9A U10C U11A C12G")
1.26
>>> numeric_result("U7C U8C G9U U11A C12U C13G")
1.12
>>> numeric_result("U7A U8G G9C U11C C12G C13U")
1.37
>>> numeric_result("U7A U8G G9A U10G U11G")
1.39
>>> numeric_result("U7A U8A G9A U10A C12A C13U")
1.09
>>> numeric_result("U8G G9A U10G U11C C12A C13A")
1.18
>>> numeric_result("U7A G9A U10G U11A C12U")
1.05
>>> numeric_result("U7G U8A G9C U10A U11A C12A")
1.03
>>> numeric_result("G9A U10A C12A C13U")
1.36
>>> numeric_result("U7G U8A G9U U10C U11G C12U C13G")
1.07
>>> numeric_result("U7G G9U C12G C13U")
1.36
>>> numeric_result("U7A U8C G9C C12U C13G")
1.06
>>> numeric_result("U8G G9C U10G C12U C13U")
1.26
>>> numeric_result("U7A U8G G9U C13G")
1.14
>>> numeric_result("G9C U10C U11A C12U C13G")
1.1
>>> numeric_result("U7C")
1.31
>>> numeric_result("U7C U8A G9U U10G U11A C13A")
1.06
>>> numeric_result("U8A G9A U11A C13U")
1.16
>>> numeric_result("U7C U8A U10C C12A C13U")
1.24
>>> numeric_result("U7A U8G G9U U10C C12A C13U")
1.35
>>> numeric_result("U7G G9A U10C U11G")
1.68
>>> numeric_result("U7G U8C U10C U11C C13G")
1.04
>>> numeric_result("U7C G9A U10C C13U")
1.96
